# SYSTEM: UniProt:P09619
# Sequence (P09619 33-1106): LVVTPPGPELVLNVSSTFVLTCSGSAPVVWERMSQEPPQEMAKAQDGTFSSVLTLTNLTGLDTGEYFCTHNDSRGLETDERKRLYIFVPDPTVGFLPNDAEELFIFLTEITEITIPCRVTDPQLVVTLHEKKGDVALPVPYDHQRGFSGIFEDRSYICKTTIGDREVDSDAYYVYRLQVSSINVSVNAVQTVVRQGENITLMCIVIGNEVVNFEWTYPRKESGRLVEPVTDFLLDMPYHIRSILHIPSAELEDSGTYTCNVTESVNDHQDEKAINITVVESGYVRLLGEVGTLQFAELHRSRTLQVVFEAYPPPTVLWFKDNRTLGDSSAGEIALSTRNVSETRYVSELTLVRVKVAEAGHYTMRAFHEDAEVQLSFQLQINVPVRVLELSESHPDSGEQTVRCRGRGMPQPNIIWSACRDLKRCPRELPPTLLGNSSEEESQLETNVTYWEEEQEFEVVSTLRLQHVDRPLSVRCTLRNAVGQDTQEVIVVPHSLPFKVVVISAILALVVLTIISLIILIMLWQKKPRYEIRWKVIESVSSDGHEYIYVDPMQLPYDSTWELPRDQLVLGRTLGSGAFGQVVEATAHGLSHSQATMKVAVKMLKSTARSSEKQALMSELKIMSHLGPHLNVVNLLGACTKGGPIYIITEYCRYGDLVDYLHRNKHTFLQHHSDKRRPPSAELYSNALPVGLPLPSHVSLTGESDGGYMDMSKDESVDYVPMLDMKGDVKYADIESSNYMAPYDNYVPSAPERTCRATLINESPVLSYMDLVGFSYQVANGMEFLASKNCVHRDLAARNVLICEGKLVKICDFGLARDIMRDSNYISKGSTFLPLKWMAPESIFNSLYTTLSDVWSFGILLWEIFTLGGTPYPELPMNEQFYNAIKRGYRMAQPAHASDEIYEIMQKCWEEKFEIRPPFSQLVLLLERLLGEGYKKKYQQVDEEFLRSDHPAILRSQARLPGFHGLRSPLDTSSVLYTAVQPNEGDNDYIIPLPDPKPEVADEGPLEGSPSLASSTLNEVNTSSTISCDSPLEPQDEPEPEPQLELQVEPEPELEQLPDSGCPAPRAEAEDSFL
# ASSAY NOTES: Biochemical PDGFR assay (ELISA)
# Parameters: expressed in transfected cells; host or cells: NIH 3T3
# CONDITIONS USED: Table 5, in vitro kinase activity, read-out: PDGFr biochem IC50
Reported IC50 values follow for various compounds

COMPOUND | RESULT
COc1ccc(CC2C(=O)Nc3ccc(CCN4CCOCC4)cc32)cc1-c1ccsc1 (stereo not drawn) | > 100 µM
O=C1Nc2cc(-c3ccccc3)ccc2C1Cc1cc(Br)ccc1O (stereo not drawn) | > 100 µM
COc1ccc(-c2ccc3c(c2)NC(=O)C3Cc2[nH]c(C)c(CCCN(C)C)c2C)cc1 (stereo not drawn) | 80 µM
O=C1Nc2cccc(CCO)c2C1Cc1ccc(Br)cc1 (stereo not drawn) | > 100 µM
CC(=O)Nc1ccc2c(c1)NC(=O)C2Cc1ccc(OCCN2CCOCC2)c(C2CCCCC2)c1 (stereo not drawn) | > 100 µM

Input line: Give recorded IC50 with UniProt:P09619 for the following compound: Cc1cccc2c1C(Cc1ccc3[nH]ccc3c1)C(=O)N2 (stereo not drawn)
Output line: > 100 µM

Input line: Give recorded IC50 with UniProt:P09619 for the following compound: O=C1Nc2ccccc2C1Cc1ccc2[nH]ccc2c1 (stereo not drawn)
Output line: > 100 µM

Input line: Give recorded IC50 with UniProt:P09619 for the following compound: COc1ccccc1-c1ccc2c(c1)NC(=O)C2Cc1[nH]c(C)c(CCCN(C)C)c1C (stereo not drawn)
Output line: 2.13 µM

Input line: Give recorded IC50 with UniProt:P09619 for the following compound: COc1ccc(CC2C(=O)Nc3cc(NC(C)=O)ccc32)cc1-c1cccs1 (stereo not drawn)
Output line: > 100 µM
